- assay.text: BET inhibitor-based combinations targeting novel dependencies in MECOM-rearranged (r) AML: MV-4-11 cell line (AID 2202233); also: nearly all actives have a fitted effect of over 45% in size
- condition.notes: MV-4-11 AML viability, CellTiter-Glo luminescence, 48 h; series mostly up to 46 µM
- Method: Ecotropic viral insertion site 1 (EVI1) is located on chromosome 3q26.2 as part of the MECOM (MDS and EVI1 complex) locus. […] A collection of 2480 mechanistically annotated dugs (MIPE v5.0) was used to screen four 3q26.2 rearranged AML cell lines and three non-3q26.2 rearranged AML cell lines. […] Cell viability was determined by luminescence based, Cell Titer Glo assay (Promega). […] Luminescence readings were taken using a Viewlux (PerkinElmer) with a 2 s exposure time per plate. […]
Results filed as inconclusive are left out. Active and inactive are the calls of the source. Calls follow the shape of the dose curve; as a rule, active = well fitted inhibition curve with a large enough effect; inconclusive = small, poorly fitted or top-dose-only effect; inactive = no such curve, though single readings can be large or run the other way.
# valid calls are active, inactive; nothing else

| molecule | classification |
| --- | --- |
| CC(=O)O[C@@]12CO[C@@H]1C[C@H](O)[C@@]1(C)C(=O)[C@H](O)C3=C(C)[C@@H](OC(=O)[C@H](O)[C@@H](NC(=O)OC(C)(C)C)c4ccccc4)C[C@@](O)([C@@H](OC(=O)c4ccccc4)[C@H]21)C3(C)C | active |
| CC(C)(O)CC[C@@H](O)[C@](C)(O)[C@H]1CC[C@@]2(O)C3=CC(=O)[C@@H]4C[C@@H](O)[C@@H](O)C[C@]4(C)[C@H]3CC[C@]12C | inactive |
| CSC[C@H]1CN(Cc2c[nH]c3c(N)ncnc23)C[C@@H]1O | inactive |
| O=C(NCc1ccc(S(=O)(=O)c2cccc(C(F)(F)F)c2)cc1)c1cnc2[nH]ncc2c1 | active |

Query: Test call, this molecule: Cc1cc(-c2ccc(CC(=O)Nc3ccc(-c4cccnc4)cc3)cc2)ccn1
Response: active

----------
- assay.text: BET inhibitor-based combinations targeting novel dependencies in MECOM-rearranged (r) AML: HNT-34 cell line (AID 2202234); also: nearly all actives have a fitted effect of over 35% in size
- condition.notes: HNT-34 AML viability, CellTiter-Glo luminescence, 48 h; series mostly up to 46 µM
Records with an inconclusive call do not appear. Calls of active or inactive are those of the source. The call rests on the fitted dose curve; in most records, active means well fitted inhibition curve with a large enough effect; inconclusive means small, poorly fitted or top-dose-only effect; inactive means no such curve, though single readings can be large or run the other way.
Can you answer with just one of these options? T (active), F (inactive)

Answered examples (5):
| smiles.structure | classification |
| --- | --- |
| COc1cc2c(NC3CCN(C)CC3)nc(N3CCCN(C)CC3)nc2cc1OCCCN(C)C | F |
| CC[C@H](C)C(=O)O[C@H]1C[C@H](O)C=C2C=C[C@H](C)[C@H](CC[C@@H](O)C[C@@H](O)CC(=O)O)[C@H]21 | F |
| COc1ccc(S(=O)(=O)N(CCO)c2ccccc2CN(C)C/C=C/c2ccc(Cl)cc2)cc1 | T |
| O=C1CC[C@H](N2Cc3c(OCc4ccc(CN5CCOCC5)cc4)cccc3C2=O)C(=O)N1 | F |
| COc1ccc(-c2ccc3ncc4c(c3c2)n(-c2ccc(N3CCNCC3)c(C(F)(F)F)c2)c(=O)n4C)cn1 | T |

Query: Record lookup: outcome of this test for COC(=O)C1=C(C)NC(c2ncc(F)cc2F)=N[C@H]1c1ccc(F)cc1Cl ?
Response: T

Query: Hi team, can someone confirm the assay call for CC[C@@]1(O)C(=O)OCc2c1cc1n(c2=O)Cc2c-1nc1ccccc1c2CCNC(C)C ?
Response: T

Query: How was C=CC[N+]1([C@H]2C[C@H]3[C@@H]4CC[C@H]5C[C@H](O)[C@@H](N6CCOCC6)C[C@]5(C)[C@H]4CC[C@]3(C)[C@H]2OC(C)=O)CCCC1 classified in this test?
Response: F

Hello, the source for this data is PubChem BioAssay (NCATS), in case you need it.
